Overview of recorded clearance for various molecules
- Test description: Clearance in Wistar Han rat at 3 mg/kg, iv administered as bolus dose and 10 mg/kg, po
- Format: ADME, organism-based
- Condition summary: in vivo
Parameter measured: clearance

1. N#Cc1ccc2ccc(=O)n(CCN3CCC(NCc4cc5c(cn4)OCCO5)CC3)c2c1; 127 mL/min/kg
2. COc1ccc2ncc(=O)n(CCN3CCC(NCc4ccc5c(n4)NC(=O)CO5)CC3)c2c1; 252 mL/min/kg

* * *

Overview of recorded half-life for various compounds
- Test description: Half life in Beagle dog at 10 mg/kg, iv administered as infusion and po
- Format: ADME, organism-based, Canis lupus familiaris
- Design: dose 10 mg/kg, route oral
- Condition summary: in vivo
Parameter measured: half-life (h)

1. N#Cc1ccc2ccc(=O)n(CCN3CC[C@H](NCc4cc5c(cn4)OCCO5)[C@H](F)C3)c2c1; 3.4
2. N#Cc1ccc2ccc(=O)n(CCN3CC[C@@H](NCc4ccc5c(n4)NC(=O)CO5)[C@@H](F)C3)c2c1; 5.4

* * *

Overview of recorded hepatocyte CLint for various compounds
- Test description: Intrinsic clearance in Beagle dog hepatocytes measured per 10^6 cells
- Type: ADME, cell-based, Canis lupus familiaris, Hepatocyte
- Condition summary: read-out: CLH
Parameter measured: hepatocyte CLint (µL/min/1e6 cells)

1. N#Cc1ccc2ccc(=O)n(CCN3CC[C@H](NCc4cc5c(cn4)OCCO5)[C@H](F)C3)c2c1; 4.5
2. N#Cc1ccc2ccc(=O)n(CCN3CC[C@@H](NCc4ccc5c(n4)NC(=O)CO5)[C@@H](F)C3)c2c1; 8.6
3. N#Cc1ccc2ccc(=O)n(CCN3CCC(NCc4cc5c(cn4)OCCO5)CC3)c2c1; 1.8

* * *

- Test description: Dissociation constant, pKa of the compound by pH metric assay
- Assay type: physicochemical
Param threshold (7) applies to pKa; output true when value >= threshold, false when value < threshold.

1) COc1ccc2ncc(=O)n(CCN3CC[C@@H](NCc4cc5c(cn4)OCCO5)[C@@H](O)C3)c2c1; true
2) N#Cc1ccc2ccc(=O)n(CCN3CC[C@H](NCc4cc5c(cn4)OCCO5)[C@@H](F)C3)c2c1 (single isomer, unassigned; enantiomer B); false
3) COc1ccc2ncc(=O)n(CCN3CC[C@@H](NCc4ccc5c(n4)NC(=O)CO5)[C@H](OC)C3)c2c1 (single isomer, unassigned; enantiomer 1); true
4) N#Cc1ccc2ccc(=O)n(CCN3CC[C@@H](NCc4ccc5c(n4)NC(=O)CO5)[C@@H](F)C3)c2c1; true
5) CO[C@@H]1CN(CCn2c(=O)ccc3ccc(C#N)cc32)CC[C@H]1NCc1ccc2c(n1)NC(=O)CO2 (single isomer, unassigned; enantiomer 1); true

* * *

Overview of recorded fraction unbound at 10 µM for various molecules
- Test description: Fraction unbound in human plasma at 10 uM by equilibrium dialysis method
- Format: ADME, cell-free
Parameter measured: fraction unbound at 10 µM

1) COc1ccc2ncc(=O)n(CCN3CC[C@H](NCc4cc5c(cn4)OCCO5)[C@@H](OC)C3)c2c1 (single isomer, unassigned; enantiomer 1); 0.11
2) COc1ccc2ncc(=O)n(CCN3CC[C@H](NCc4cc5c(cn4)OCCO5)[C@@H](F)C3)c2c1 (single isomer, unassigned; enantiomer B); 0.09
3) N#Cc1ccc2ccc(=O)n(CCN3CC[C@H](NCc4cc5c(cn4)OCCO5)[C@H](O)C3)c2c1; 0.19
4) COc1ccc2ncc(=O)n(CCN3CC[C@H](NCc4cc5c(cn4)OCCO5)[C@H](O)C3)c2c1; 0.19
5) CO[C@H]1CN(CCn2c(=O)ccc3ccc(C#N)cc32)CC[C@H]1NCc1cc2c(cn1)OCCO2; 0.54
6) COc1ccc2ncc(=O)n(CCN3CC[C@@H](NCc4cc5c(cn4)OCCO5)[C@H](O)C3)c2c1 (single isomer, unassigned; enantiomer B); 0.18
7) COc1ccc2ncc(=O)n(CCN3CC[C@@H](NCc4cc5c(cn4)OCCO5)[C@@H](OC)C3)c2c1; 0.33

* * *

- Test description: Fraction unbound in human plasma at 10 uM by equilibrium dialysis method
- Format: ADME, cell-free
Parameter measured: fraction unbound at 10 µM

1. COc1ccc2ncc(=O)n(CCN3CC[C@@H](NCc4ccc5c(n4)NC(=O)CO5)[C@H](OC)C3)c2c1 (single isomer, unassigned; enantiomer 1); 0.18
2. N#Cc1ccc2ccc(=O)n(CCN3CC[C@H](NCc4cc5c(cn4)OCCO5)[C@@H](F)C3)c2c1 (single isomer, unassigned; enantiomer B); 0.09
3. N#Cc1ccc2ccc(=O)n(CCN3CCC(NCc4cc5c(cn4)OCCO5)CC3)c2c1; 0.28
4. COc1ccc2ncc(=O)n(CCN3CC[C@H](NCc4ccc5c(n4)NC(=O)CO5)[C@H](O)C3)c2c1; 0.14

* * *

- Test description: Volume of distribution in Wistar Han rat at 3 mg/kg, iv administered as bolus dose and 10 mg/kg, po
- Format: ADME, organism-based
- Condition summary: in vivo
Overview of recorded Vd for various molecules
Parameter measured: Vd (L/kg)

1) N#Cc1ccc2ccc(=O)n(CCN3CCC(NCc4cc5c(cn4)OCCO5)CC3)c2c1; 21
2) COc1ccc2ncc(=O)n(CCN3CCC(NCc4ccc5c(n4)NC(=O)CO5)CC3)c2c1; 23

* * *

Overview of recorded clearance for various compounds
- Test description: Clearance in Beagle dog at 3 mg/kg, iv administered as bolus dose and 10 mg/kg, po
- Format: ADME, organism-based, Canis lupus familiaris
- Condition summary: in vivo
Parameter measured: clearance (mL/min/kg)

1) N#Cc1ccc2ccc(=O)n(CCN3CCC(NCc4cc5c(cn4)OCCO5)CC3)c2c1; 18
2) COc1ccc2ncc(=O)n(CCN3CCC(NCc4ccc5c(n4)NC(=O)CO5)CC3)c2c1; 8.5

* * *

- System: Staphylococcus aureus
- Test description: Antibacterial activity against methicillin-susceptible Staphylococcus aureus after 18 to 24 hrs by CLSI broth microdilution method
- Format: functional
Overview of recorded MIC for various compounds
Parameter measured: MIC (µg/mL)

1) CO[C@@H]1CN(CCn2c(=O)ccc3ccc(C#N)cc32)CC[C@H]1NCc1ccc2c(n1)NC(=O)CO2 (single isomer, unassigned; enantiomer 1); 0.13
2) N#Cc1ccc2ccc(=O)n(CCN3CC[C@@H](NCc4cc5c(cn4)OCCO5)[C@@H](F)C3)c2c1; 0.13
3) N#Cc1ccc2ccc(=O)n(CCN3CC[C@H](NCc4cc5c(cn4)OCCO5)[C@H](O)C3)c2c1; 0.06
4) COc1ccc2ncc(=O)n(CCN3CC[C@@H](NCc4cc5c(cn4)OCCO5)[C@@H](OC)C3)c2c1; 0.06
5) COc1ccc2ncc(=O)n(CCN3CC[C@@H](NCc4ccc5c(n4)NC(=O)CO5)[C@H](OC)C3)c2c1 (single isomer, unassigned; enantiomer 1); 0.03
6) CO[C@H]1CN(CCn2c(=O)ccc3ccc(C#N)cc32)CC[C@H]1NCc1ccc2c(n1)NC(=O)CO2; 0.13
7) COc1ccc2ncc(=O)n(CCN3CC[C@H](NCc4cc5c(cn4)OCCO5)[C@H](O)C3)c2c1; 0.03
8) COc1ccc2ncc(=O)n(CCN3CC[C@H](NCc4cc5c(cn4)OCCO5)[C@@H](F)C3)c2c1 (single isomer, unassigned; enantiomer B); 0.06

* * *

- Tested on: Staphylococcus aureus
- Test description: Antibacterial activity against vancomycin-resistant Staphylococcus aureus ARC 3186 after 18 to 24 hrs by CLSI broth microdilution method
- Format: functional
Overview of recorded MIC for various compounds
Parameter measured: MIC

1) N#Cc1ccc2ccc(=O)n(CCN3CC[C@H](NCc4cc5c(cn4)OCCO5)[C@H](F)C3)c2c1; 0.015 µg/mL
2) CN[C@H](CC(C)C)C(=O)N[C@H]1C(=O)N[C@@H](CC(N)=O)C(=O)N[C@H]2C(=O)N[C@H]3C(=O)N[C@H](C(=O)N[C@H](C(=O)O)c4cc(O)cc(O)c4-c4cc3ccc4O)[C@H](O)c3ccc(c(Cl)c3)Oc3cc2cc(c3O[C@@H]2O[C@H](CO)[C@@H](O)[C@H](O)[C@H]2O[C@H]2C[C@](C)(N)[C@H](O)[C@H](C)O2)Oc2ccc(cc2Cl)[C@H]1O; > 64 µg/mL
3) CC(=O)NC[C@H]1CN(c2ccc(N3CCOCC3)c(F)c2)C(=O)O1; 1 µg/mL
4) C[C@H]1COc2c(N3CCN(C)CC3)c(F)cc3c(=O)c(C(=O)O)cn1c23.C[C@H]1COc2c(N3CCN(C)CC3)c(F)cc3c(=O)c(C(=O)O)cn1c23.O; 16 µg/mL

* * *

- Test description: Half life in Wistar Han rat at 3 mg/kg, iv administered as bolus dose and 10 mg/kg, po
- Format: ADME, organism-based
- Condition summary: in vivo
Parameter measured: half-life (h)

1. N#Cc1ccc2ccc(=O)n(CCN3CCC(NCc4cc5c(cn4)OCCO5)CC3)c2c1; 3

The measured values listed here are drawn from ChEMBL document CHEMBL2163267.
